# experimental_target: GST-HDAC6, human, recombinant (recombinant HDAC6 WT) (Homo sapiens)
# Sequence (Q9UBN7 whole entry): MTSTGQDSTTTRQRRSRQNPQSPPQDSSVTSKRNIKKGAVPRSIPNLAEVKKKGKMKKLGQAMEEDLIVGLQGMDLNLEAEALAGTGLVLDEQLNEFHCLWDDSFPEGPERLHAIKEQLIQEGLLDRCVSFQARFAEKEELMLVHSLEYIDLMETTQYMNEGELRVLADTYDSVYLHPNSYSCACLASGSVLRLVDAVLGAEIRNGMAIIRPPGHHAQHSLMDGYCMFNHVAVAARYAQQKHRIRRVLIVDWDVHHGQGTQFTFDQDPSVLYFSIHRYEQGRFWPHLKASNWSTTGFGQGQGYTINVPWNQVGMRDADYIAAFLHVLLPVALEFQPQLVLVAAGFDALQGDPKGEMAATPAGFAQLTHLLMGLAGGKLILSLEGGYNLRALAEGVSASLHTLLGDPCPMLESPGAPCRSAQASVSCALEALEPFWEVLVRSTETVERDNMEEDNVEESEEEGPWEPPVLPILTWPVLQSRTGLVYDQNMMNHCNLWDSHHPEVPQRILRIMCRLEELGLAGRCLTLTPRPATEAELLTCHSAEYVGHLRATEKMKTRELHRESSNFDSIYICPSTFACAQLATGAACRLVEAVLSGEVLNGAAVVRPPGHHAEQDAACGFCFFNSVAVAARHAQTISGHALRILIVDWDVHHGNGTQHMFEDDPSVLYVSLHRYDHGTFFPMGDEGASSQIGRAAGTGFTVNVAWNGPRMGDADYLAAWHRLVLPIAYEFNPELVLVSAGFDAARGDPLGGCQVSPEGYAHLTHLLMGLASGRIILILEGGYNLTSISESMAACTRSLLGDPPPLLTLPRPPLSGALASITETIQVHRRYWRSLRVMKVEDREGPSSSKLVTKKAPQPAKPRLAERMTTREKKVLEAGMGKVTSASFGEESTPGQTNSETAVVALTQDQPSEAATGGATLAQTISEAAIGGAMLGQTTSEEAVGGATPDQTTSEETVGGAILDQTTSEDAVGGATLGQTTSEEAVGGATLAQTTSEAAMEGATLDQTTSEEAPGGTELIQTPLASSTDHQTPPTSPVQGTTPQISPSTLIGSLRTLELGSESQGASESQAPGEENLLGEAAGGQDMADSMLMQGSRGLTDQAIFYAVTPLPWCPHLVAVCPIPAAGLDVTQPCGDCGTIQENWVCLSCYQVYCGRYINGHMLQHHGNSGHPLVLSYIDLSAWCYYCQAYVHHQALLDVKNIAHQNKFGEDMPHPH
# assay_details: ELISA PPI competition, HDAC6 binding to immobilised His6-ubiquitin
parameter_measured: IC50 (µM)
Report only the number, with the unit µM understood.

Any idea what its IC50 is? The molecule is Cc1ccccc1OCCCn1cc(C=C2C(=N)N3N=CSC3=NC2=O)c2ccccc21 [compound 16]
78
